All figures here come from ChEMBL document CHEMBL5247578.

test system: NCI/ADR-RES; experiment: Antiproliferative activity against human NCI/ADR-RES cells assessed as cell growth inhibition at 10 uM incubated for 48 hrs by sulforhodamine B assay relative to control; assay type: functional
Below: a set of entries, each annotated with reported inhibition at 10 µM.

Here is how some molecules turned out for inhibition at 10 µM.
c1ccc(-c2cn3ccnc3c(-c3ccc4ncn(C5CCCCC5)c4c3)n2)cc1 | 50.5%
Cc1cccc(-c2cn3ccnc3c(-c3ccc4ncn(Cc5ccccc5)c4c3)n2)c1 | 12.1%
CC(=O)c1ccc(-c2cn3ccnc3c(-c3ccc4ncn(C5CCCCC5)c4c3)n2)cc1 | 4.17%
c1cn2cc(-c3ccc4c(c3)ncn4C3CCCCC3)nc(-c3ccc4ncn(C5CCCCC5)c4c3)c2n1 | 27%
c1cn2cc(-c3ccc4ncn(C5CCCCC5)c4c3)nc(-c3ccc4ncn(C5CCCCC5)c4c3)c2n1 | 48.8%

Lab note: measured inhibition at 10 µM of "Fc1ccccc1-c1cn2ccnc2c(-c2ccc3ncn(C4CCCCC4)c3c2)n1" was 4.51%

For reference, reported inhibition at 10 µM for "c1ccc2c(-c3cn4ccnc4c(-c4ccc5ncn(C6CCCCC6)c5c4)n3)cccc2c1" stands at 4.43%

Reported inhibition at 10 µM for "COc1ccc(-c2cn3ccnc3c(-c3ccc4ncn(C5CCCCC5)c4c3)n2)cc1" was 87.2%

inhibition at 10 µM in this record for "CCc1ccc(-c2cn3ccnc3c(-c3ccc4ncn(Cc5ccccc5)c4c3)n2)cc1" : 41.2%

* * *

tested on: LOX IMVI; assay: Antiproliferative activity against human LOX IMVI cells assessed as cell growth inhibition at 10 uM incubated for 48 hrs by sulforhodamine B assay relative to control; assay type: functional
READOUT TYPE: inhibition at 10 µM

// below: answered compounds
c1ccc(Cn2cnc3ccc(-c4nc(-c5ccc6c(c5)ncn6C5CCCCC5)cn5ccnc45)cc32)cc1 | -87%
Fc1ccc(-c2cn3ccnc3c(-c3ccc4ncn(C5CCCCC5)c4c3)n2)cc1 | 3.5%
CC(=O)c1ccc(-c2cn3ccnc3c(-c3ccc4ncn(C5CCCCC5)c4c3)n2)cc1 | 14.5%
COc1ccccc1-c1cn2ccnc2c(-c2ccc3ncn(C4CCCCC4)c3c2)n1 | 5.13%

Next compound, please.
Query "c1ccc(Cn2cnc3ccc(-c4nc(-c5cccc6ccccc56)cn5ccnc45)cc32)cc1" yields inhibition at 10 µM of 16.5%

* * *

# inhibition at 10 µM annotations
test system: NCI-H460; test: Antiproliferative activity against human NCI-H460 cells assessed as cell growth inhibition at 10 uM incubated for 48 hrs by sulforhodamine B assay relative to control; assay type: functional

Solved cases (6 shown):
O=Cc1ccc(-c2cn3ccnc3c(-c3ccc4ncn(C5CCCCC5)c4c3)n2)cc1 | 37.8%
COc1ccccc1-c1cn2ccnc2c(-c2ccc3ncn(C4CCCCC4)c3c2)n1 | 9.62%
Brc1ccc(-c2cn3ccnc3c(-c3ccc4ncn(C5CCCCC5)c4c3)n2)cc1 | 13.2%
FC(F)(F)c1cccc(-c2cn3ccnc3c(-c3ccc4ncn(C5CCCCC5)c4c3)n2)c1 | 4.38%
c1ccc(-c2cn3ccnc3c(-c3ccc4ncn(C5CCCCC5)c4c3)n2)cc1 | 37.8%
c1ccc(Cn2cnc3ccc(-c4nc(-c5ccc6c(c5)ncn6C5CCCCC5)cn5ccnc45)cc32)cc1 | -20.3%

Record "Clc1ccc(-c2cn3ccnc3c(-c3ccc4ncn(C5CCCCC5)c4c3)n2)cc1" . Reported inhibition at 10 µM: 4.14%

The reported value for "c1ccc(Cn2cnc3ccc(-c4nc(-c5cccc6ccccc56)cn5ccnc45)cc32)cc1" in terms of inhibition at 10 µM is 3.8%

Please fill in: inhibition at 10 µM reported for "Cc1cccc(-c2cn3ccnc3c(-c3ccc4ncn(Cc5ccccc5)c4c3)n2)c1" = 10.1%

* * *

system: NCI-H226; test: Antiproliferative activity against human NCI-H226 cells assessed as cell growth inhibition at 10 uM incubated for 48 hrs by sulforhodamine B assay relative to control; format: functional
Quick rule: inhibition at 10 µM of at least 20% means y, below that means n.

COc1ccc(-c2cn3ccnc3c(-c3ccc4ncn(C5CCCCC5)c4c3)n2)cc1 | y
Cc1cccc(-c2cn3ccnc3c(-c3ccc4ncn(Cc5ccccc5)c4c3)n2)c1 | n
Fc1ccc(-c2cn3ccnc3c(-c3ccc4ncn(C5CCCCC5)c4c3)n2)cc1 | y
c1cn2cc(-c3ccc4c(c3)ncn4C3CCCCC3)nc(-c3ccc4ncn(C5CCCCC5)c4c3)c2n1 | n
c1csc(-c2cn3ccnc3c(-c3ccc4ncn(C5CCCCC5)c4c3)n2)c1 | n

Prompt: Could you please find out whether "Brc1ccc(-c2cn3ccnc3c(-c3ccc4ncn(C5CCCCC5)c4c3)n2)cc1" has inhibition at 10 µM that meets 20% or exceeds it?
Response: y

Prompt: Is reported inhibition at 10 µM greater than or equal to 20% here: "c1ccc(-c2cn3ccnc3c(-c3ccc4ncn(C5CCCCC5)c4c3)n2)cc1"
Response: y

Prompt: Has "c1ccc2c(-c3cn4ccnc4c(-c4ccc5ncn(C6CCCCC6)c5c4)n3)cccc2c1" a recorded inhibition at 10 µM greater than or equal to 20%?
Response: n

Prompt: Hi team, for "CCc1ccc(-c2cn3ccnc3c(-c3ccc4ncn(Cc5ccccc5)c4c3)n2)cc1" , is the recorded inhibition at 10 µM at or above 20%?
Response: n

Prompt: Hi team, for "Fc1ccccc1-c1cn2ccnc2c(-c2ccc3ncn(C4CCCCC4)c3c2)n1" , is the recorded inhibition at 10 µM at or above 20%?
Response: y

Prompt: inhibition at 10 µM >= 20% for "COc1ccccc1-c1cn2ccnc2c(-c2ccc3ncn(C4CCCCC4)c3c2)n1" ?
Response: y

Prompt: Determine whether this compound has inhibition at 10 µM no lower than 20%: "Brc1cn2ccnc2c(-c2ccc3ncn(C4CCCCC4)c3c2)n1"
Response: y

Prompt: Dear colleague, could you confirm whether "c1cn2cc(-c3ccc4ncn(C5CCCCC5)c4c3)nc(-c3ccc4ncn(C5CCCCC5)c4c3)c2n1" has inhibition at 10 µM at or above 20%?
Response: y

Prompt: API: above_or_equal(metric=inhibition at 10 µM, cutoff=20%) for item "c1cn2cc(-c3ccsc3)nc(-c3ccc4ncn(C5CCCCC5)c4c3)c2n1"
Response: n

Prompt: Would you say "c1ccc(Cn2cnc3ccc(-c4nc(-c5ccc6c(c5)ncn6C5CCCCC5)cn5ccnc45)cc32)cc1" shows inhibition at 10 µM at minimum 20%?
Response: n

Prompt: Has "FC(F)(F)c1cccc(-c2cn3ccnc3c(-c3ccc4ncn(C5CCCCC5)c4c3)n2)c1" a recorded inhibition at 10 µM greater than or equal to 20%?
Response: n

Prompt: # check: inhibition at 10 µM of "O=Cc1ccc(-c2cn3ccnc3c(-c3ccc4ncn(C5CCCCC5)c4c3)n2)cc1" is greater than or equal to 20%
Response: n

Prompt: Given the entry "Clc1ccc(-c2cn3ccnc3c(-c3ccc4ncn(C5CCCCC5)c4c3)n2)cc1" , answer whether its inhibition at 10 µM meets or surpasses 20%.
Response: n

Prompt: Check the entry "O=Cc1ccc(-c2cn3ccnc3c(-c3ccc4ncn(Cc5ccccc5)c4c3)n2)cc1" : does inhibition at 10 µM equal or exceed 20%?
Response: n

* * *

assay: n-Octanol/phosphate buffer partition coefficient, logP of the compound at pH 7.4 incubated for 85 mins by shake-flask method; format: physicochemical
READOUT TYPE: logD at 1.417 h
Returns: the value as a bare number; no unit string appended.

CCc1ccc(-c2cn3ccnc3c(-c3ccc4ncn(Cc5ccccc5)c4c3)n2)cc1 | 1.96
Fc1ccc(-c2cn3ccnc3c(-c3ccc4ncn(C5CCCCC5)c4c3)n2)cc1 | 2.01
CCc1ccc(-c2cn3ccnc3c(-c3ccc4ncn(C5CCCCC5)c4c3)n2)cc1 | 1.66

The value of logD at 1.417 h measured for the compound "c1cn2cc(-c3ccsc3)nc(-c3ccc4ncn(C5CCCCC5)c4c3)c2n1" turned out to be 1.81

Consider "c1ccc(Cn2cnc3ccc(-c4nc(-c5ccc6c(c5)ncn6C5CCCCC5)cn5ccnc45)cc32)cc1" . Its measured logD at 1.417 h is 1.61

* * *

tested on: K562; assay: Antiproliferative activity against human K562 cells assessed as cell growth inhibition at 10 uM incubated for 48 hrs by sulforhodamine B assay relative to control; assay type: functional
Entries and their inhibition at 10 µM
Lab book: enter the figure in %, no units written.

Clc1ccc(-c2cn3ccnc3c(-c3ccc4ncn(C5CCCCC5)c4c3)n2)cc1 | 44.5
c1cn2cc(-c3ccc4c(c3)ncn4C3CCCCC3)nc(-c3ccc4ncn(C5CCCCC5)c4c3)c2n1 | 38.5
c1ccc2c(-c3cn4ccnc4c(-c4ccc5ncn(C6CCCCC6)c5c4)n3)cccc2c1 | 30.9
c1cn2cc(-c3ccc4ncn(C5CCCCC5)c4c3)nc(-c3ccc4ncn(C5CCCCC5)c4c3)c2n1 | 69.8
COc1ccccc1-c1cn2ccnc2c(-c2ccc3ncn(C4CCCCC4)c3c2)n1 | 22.6

Lab note: molecule "c1cn2cc(-c3ccsc3)nc(-c3ccc4ncn(C5CCCCC5)c4c3)c2n1" tested on K562; recorded inhibition at 10 µM was 22

inhibition at 10 µM value, target or system K562, for "c1csc(-c2cn3ccnc3c(-c3ccc4ncn(C5CCCCC5)c4c3)n2)c1" : 26.9

// inhibition at 10 µM (K562) for "Fc1ccc(-c2cn3ccnc3c(-c3ccc4ncn(C5CCCCC5)c4c3)n2)cc1" = 24.7

"FC(F)(F)c1cccc(-c2cn3ccnc3c(-c3ccc4ncn(C5CCCCC5)c4c3)n2)c1" on K562 gives inhibition at 10 µM = 21.5

Item "Brc1ccc(-c2cn3ccnc3c(-c3ccc4ncn(C5CCCCC5)c4c3)n2)cc1" ; assay system K562; inhibition at 10 µM reported as 59

# "c1ccc(-c2cn3ccnc3c(-c3ccc4ncn(C5CCCCC5)c4c3)n2)cc1" with K562: inhibition at 10 µM is 70.6

Lab entry: K562 assay, molecule "CC(=O)c1ccc(-c2cn3ccnc3c(-c3ccc4ncn(C5CCCCC5)c4c3)n2)cc1" , inhibition at 10 µM = 9.6

Known value: K562 inhibition at 10 µM of the molecule "COc1ccc(-c2cn3ccnc3c(-c3ccc4ncn(C5CCCCC5)c4c3)n2)cc1" equals 92

Record "Fc1ccccc1-c1cn2ccnc2c(-c2ccc3ncn(C4CCCCC4)c3c2)n1" / K562, inhibition at 10 µM recorded as 22.8

Form field inhibition at 10 µM for item "Brc1cn2ccnc2c(-c2ccc3ncn(C4CCCCC4)c3c2)n1" on K562: 18
